src = the nanobody polyreactivity screen of Harvey et al. (2022)

- protocol-summary: yeast display, Sf9 membrane polyspecificity reagent, FACS + sequencing; frameworks hold sequencing errors
assay-endpoint: polyreactivity (PSR sort gate)

[[record]]
sequence_chain = "QVQLVESGGGLVQAGGSLRLSCAPSGFIFTLYAMGWYRQAPGKERELVASISSGGSTNYADSVKGRFTISRDNAKNTVYLQMHSLKPEATAVYYCDAYYYSKSDRFSGRYGRYYWGQVTQVTVSS"
assay_endpoint = "polyreactivity (PSR sort gate)"
result = "high polyreactivity"

[[record]]
sequence_chain = "QVQLQESGGGLVQAGGSLRLSCAASGTITVLYKMGWFRLAPGKEREFVASINYGTSTYYADSVKGRFTVSRDSAKNTVYLQMNSLKPEDTAVYYCAAAYRWQDVYRYWGQGTQVTVSS"
assay_endpoint = "polyreactivity (PSR sort gate)"
result = "low polyreactivity"

[[record]]
sequence_chain = "QLQRVESGGGLVQAGGSLRLSCAASGSIFNENAMGWYIQAPGKERELVAGIDSGGNTYYADSVKGRFTISRDNAKNTVYLQMISLKPEDTAVYYCAKRGVPVRASATFLFEFDYWGQGTQVPVSS"
assay_endpoint = "polyreactivity (PSR sort gate)"
result = "low polyreactivity"

[[record]]
sequence_chain = "QVQLVESGGGLVQAGGSLRLSCAPSGIIFLGYMGWYRQAPGKEREFVADITFSVDGTYYADSVKGRFTISRDNAKNTVYLQMNSLKPEDNAVYYCAAVSDLQAGTMEYWGQGTEVTVSS"
assay_endpoint = "polyreactivity (PSR sort gate)"
result = "high polyreactivity"

